Below, each entry is listed alongside its reported kon.
# ASSAY_SYSTEM: T1, human CD3ed (human, UniProt P07766 23-126; P04234 22-105, limits assumed)
# T1 construct: The construct injected as 'human CD3ed' in the Biacore assay is not defined; also called human CD3 epsilon/delta heterodimer
# T1 sequence (P07766 23-126 limits assumed, chain 1 of 2): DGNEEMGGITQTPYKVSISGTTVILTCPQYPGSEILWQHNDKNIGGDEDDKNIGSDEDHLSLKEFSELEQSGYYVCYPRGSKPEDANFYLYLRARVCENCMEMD
# T1 sequence (P04234 22-105 limits assumed, chain 2 of 2): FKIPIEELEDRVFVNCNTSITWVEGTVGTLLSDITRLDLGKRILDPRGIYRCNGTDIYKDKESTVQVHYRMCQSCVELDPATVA
# TEST_METHOD_NOTES: SPR Biacore T200, IgG captured on protein A, antigen as analyte, 25 C;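 further: antigens flowed over a CM3 chip for 120 s association, KD derived from ka and kd, running buffer (ACES, NaCl, Tween20, pH 7.4) served as blank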
Kindly provide the numeric value in M⁻¹ s⁻¹ only, without the unit symbol.

dBBDu_186 / dBBDu_L108 (antibody, human IgG1, V domains shown, Tested as IgG (human IgG1 constant region, kappa light chain); also called dBBDu186/L108) VH: QVQLVESGGGLVQPGRSLRLSCAASGFTFSNAWMHWVRQAPGKGLEWVAQIKDRSNQYATYYAPSVKGRFTISRDDSKNSIYLQMNSLKTEDTAVYYCHYVHYAQASTVLPAFGVDAWGQGTTVTVSS VL: DIVMTQSPLSLPVTPGEPASISCRTSEELLHINRFTFLHWYQQKPGQAPRLLIYKVSNRFMGVPDRFSGSGSGTDFTLKISRVEAEDVGVYYCAQGSAVPFTFGQGTKLEIK = 13600
dBBDu_186 / dBBDu_L096 (antibody, human IgG1, V domains shown, Tested as IgG (human IgG1 constant region, kappa light chain); also called dBBDu186/L096) VH: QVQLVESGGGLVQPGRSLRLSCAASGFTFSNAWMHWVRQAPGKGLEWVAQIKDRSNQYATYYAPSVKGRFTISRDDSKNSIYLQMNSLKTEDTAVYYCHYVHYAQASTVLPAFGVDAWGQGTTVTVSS VL: DIVMTQSPLSLPVTPGEPASISCRTSQELVHINRYIFLHWYQQKPGQAPRLLIYKVYNRFQGVPDRFSGSGSGTDFTLKISRVEAEDVGVYYCAQGTSVPYTFGQGTKLEIK = 11200
dBBDu_183 / dBBDu_L063 (antibody, V domains shown, Tested as IgG (Fab genes converted into IgG format, human IgG1 constant region, kappa light chain); also called dBBDu183/L063; dBBDu_183/L063) VH: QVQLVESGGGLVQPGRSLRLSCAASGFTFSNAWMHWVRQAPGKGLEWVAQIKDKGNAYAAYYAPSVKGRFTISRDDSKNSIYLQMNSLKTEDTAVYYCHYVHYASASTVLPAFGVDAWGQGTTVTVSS VL: DIVMTQSPLSLPVTPGEPASISCRSSQELVHTNRHTYLHWYQQKPGQAPRLLIYKVSNRFPGVPDRFSGSGSGTDFTLKISRVEAEDVGVYYCAQGTQVPFTFGQGTKLEIK = 56900
dBBDu_193 / dBBDu.L127 (antibody, human IgG1, V domains shown, Tested as IgG (human IgG1 constant region, kappa light chain); also called dBBDu193/L127; dBBDu_193/L127) VH: QVQLVESGGGLVQPGRSLRLSCAASGFTFSNAWMHWVRQAPGKGLEWVAQIKDRSNQYATYYAPSVKGRFTISRDDSKNSIYLQMNSLKTEDTAVYYCHYVHYSAASTLLPSFGVDAWGQGTTVTVSS VL: DIVMTQSPLSLPVTPGEPASISCRASEELLHINRHIFLHWYQQKPGQAPRLLIYKVYNRFTGVPDRFSGSGSGTDFTLKISRVEAEDVGVYYCAQGTSVPFTFGQGTKLEIK = 12600

Hello, please tell me recorded kon for this one: dBBDu_186 / dBBDu_L100 (antibody, human IgG1, V domains shown, Tested as IgG (human IgG1 constant region, kappa light chain); also called dBBDu186/L100) VH: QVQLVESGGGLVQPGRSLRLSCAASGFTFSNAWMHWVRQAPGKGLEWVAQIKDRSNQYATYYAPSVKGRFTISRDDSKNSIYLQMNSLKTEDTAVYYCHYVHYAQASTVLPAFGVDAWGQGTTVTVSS VL: DIVMTQSPLSLPVTPGEPASISCSASEELVHINRYIFLHWYQQKPGQAPRLLIYKVYNRFMGVPDRFSGSGSGTDFTLKISRVEAEDVGVYYCGQGSSVPFTFGQGTKLEIK
16200

Hello, please tell me recorded kon for this one: dBBDu_189 / dBBDu_L126 (antibody, human IgG1, V domains shown, Tested as IgG (human IgG1 constant region, kappa light chain); also called dBBDu189/L126) VH: QVQLVESGGGLVQPGRSLRLSCAASGFTFSNAWMHWVRQAPGKGLEWIAQIKDRSNQYATYYAPSVKGRFTISRDDSKNSIYLQMNSLKTEDTAVYYCHYVHYAQASSLLPSFGVDAWGQGTTVTVSS VL: DIVMTQSPLSLPVTPGEPASISCRTSEELLHINRYIFLHWYQQKPGQAPRLLIYKVQNRFSGVPDRFSGSGSGTDFTLKISRVEAEDVGVYYCAQGSAVPFTFGQGTKLEIK
10900
